Data provenance: patent US20160108123A1

target: T1, human PD-L1 expressed on 300.19 cells (human, UniProt Q9NZQ7 19-290); experiment: competition FACS against Alexa 488-labeled murine BAP058 on PD-L1-expressing 300.19 cells
T1 construct: whole, on cells; also called huPD-L1; PD-L1-expressing 300.19 cells
T1 sequence (Q9NZQ7 19-290): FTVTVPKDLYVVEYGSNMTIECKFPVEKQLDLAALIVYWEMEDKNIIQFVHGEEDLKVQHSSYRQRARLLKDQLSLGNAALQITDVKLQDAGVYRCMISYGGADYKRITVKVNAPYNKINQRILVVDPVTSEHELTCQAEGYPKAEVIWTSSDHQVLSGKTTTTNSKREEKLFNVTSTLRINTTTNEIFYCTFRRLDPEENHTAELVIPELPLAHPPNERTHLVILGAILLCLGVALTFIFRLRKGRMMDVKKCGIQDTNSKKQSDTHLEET
In this section we review reported Comp. binding (ratio conc. test mAb / conc. labelled murine BAP058 at the IC50) values for a set of binders.
// no unit string in output, number only

BAP058-hum12 (antibody, human IgG4 S228P, kappa, V domains shown, Humanized IgG4(S228P)/human kappa mAb expressed in CHO cells) VH: EVQLVQSGAEVKKPGESLRISCKGSGYTFTSYWMYWVRQAPGQGLEWMGRIDPNSGSTKYNEKFKNRVTISVDTSKNQFSLKLSSVTAADTAVYYCARDYRKGLYAMDYWGQGTTVTVSS VL: DIQMTQSPSSLSASVGDRVTITCKASQDVGTAVAWYQQKPGQAPRLLIYWASTRHTGVPSRFSGSGSGTDFTFTISSLQPEDIATYYCQQYNSYPLTFGQGTKVEIKR ... 2.27
BAP058-hum04 (antibody, human IgG4 S228P, kappa, V domains shown, Humanized IgG4(S228P)/human kappa mAb expressed in CHO cells) VH: EVQLVQSGAEVKKPGESLRISCKGSGYTFTSYWMYWVRQAPGQGLEWMGRIDPNSGSTKYNEKFKNRVTISVDTSKNQFSLKLSSVTAADTAVYYCARDYRKGLYAMDYWGQGTTVTVSS VL: EIVLTQSPDFQSVTPKEKVTITCKASQDVGTAVAWYLQKPGQSPQLLIYWASTRHTGVPSRFSGSGSGTDFTFTISSLQPEDIATYYCQQYNSYPLTFGQGTKVEIKR ... 1.13

Prompt: Which Comp. binding (ratio conc. test mAb / conc. labelled murine BAP058 at the IC50) is listed for BAP058-hum05 (antibody, human IgG4 S228P, kappa, V domains shown, Humanized IgG4(S228P)/human kappa mAb expressed in CHO cells) VH: EVQLVQSGAEVKKPGATVKISCKVSGYTFTSYWMYWIRQSPSRGLEWLGRIDPNSGSTKYNEKFKNRLTISKDTSKNQVVLTMTNMDPVDTATYYCARDYRKGLYAMDYWGQGTTVTVSS VL: EIVLTQSPDFQSVTPKEKVTITCKASQDVGTAVAWYLQKPGQSPQLLIYWASTRHTGVPSRFSGSGSGTDFTFTISSLQPEDIATYYCQQYNSYPLTFGQGTKVEIKR ?
Completion: 1.71
